- method.summary: qHTS assay to identify small molecule agonists of the AP-1 signaling pathway - cell viability counter screen (AID 1159525); also: nearly all actives have a fitted effect of over 55% in size
- condition.summary: ME-180 AP-1-bla cells viability, ATP luminescence, 5 h; series mostly up to 76.8 µM
Results filed as inconclusive are left out. Active and inactive are the calls of the source. Calls follow the shape of the full dose curve.
measure: outcome

Some solved cases for reference:
compound: Nc1ccc(N)cc1
outcome: inactive
//
compound: CCOP(=S)(OCC)Oc1cc(C)nc(C(C)C)n1
outcome: inactive
//
compound: CN1C(=O)CCS(=O)(=O)C1c1ccc(Cl)cc1 (stereo unspecified)
outcome: inactive
//
compound: CC12CC1(C)C(=O)N(c1cc(Cl)cc(Cl)c1)C2=O (stereo unspecified)
outcome: inactive

// sample `Cl[C@H]1OCCO[C@@H]1Cl` , its outcome was inactive

Field outcome (entry `CN(C)NC(=O)CCC(=O)O` ) reads inactive

`Cc1cc(O)ccc1Cl` has a reported outcome of inactive

Reported outcome ( `Cc1cccc(C)c1NC(=O)CN1CCCC1=O` ) = inactive

For record `CC(C)c1cccc(C(C)C)c1O` the listed outcome is inactive

outcome reading for `C=CC(=O)OCCCCCC(C)C` : inactive

Consider `Cc1ccc(N)cc1` . Its measured outcome is inactive

`Cc1cccc(N)c1` has a reported outcome of inactive

Record `Oc1c(Br)cc(Br)cc1Br` . Reported outcome: inactive

get_value(item= `COC(=O)Nc1cccc(OC(=O)Nc2cccc(C)c2)c1` , readout=outcome) returns inactive

outcome recorded for this compound, `O=C(O)COc1ccccc1` , is inactive

`C=CC#N` has a reported outcome of inactive

`Cl/C=C/Cl` yielded outcome of inactive

----------
- method.summary: qHTS assay to identify small molecule agonists of H2AX (AID 1224845); also: % is scaled to controls: 0 for no effect and ±100 for the full control effect
- condition.summary: CHO-K1 phospho-H2AX Ser139 HTRF, 3 h; series mostly up to 154 µM
Records with an inconclusive call do not appear. Calls of active or inactive are those of the source. The call rests on the fitted dose curve; in most records, active means well fitted activation curve with a large enough effect in the signal ratio in the repeat runs (not every such curve was filed as active); inconclusive means weak or mixed curves; inactive means flat fitted curve, though single readings scatter; the % refers to the signal ratio.
measure: Potency

Check out these entries, answers already filled in.
molecule: O=[N+]([O-])c1ccc(Cl)cc1
Potency: inactive
--
molecule: O=[N+]([O-])c1cc([As](=O)(O)O)ccc1O
Potency: inactive
--
molecule: CNc1cnn(-c2cccc(C(F)(F)F)c2)c(=O)c1Cl
Potency: inactive
--
molecule: CN(C)C(=O)Cl
Potency: inactive

Next, consider the following molecule.
Note to self: Potency recorded for Cc1cc(Cl)ccc1OC(C)C(=O)O (stereo not given) was inactive

----------
- method.summary: qHTS assay to identify small molecule antagonists of the peroxisome proliferator-activated receptor delta (PPARd) signaling pathway - cell viability counter screen (AID 743213); also: % is scaled to controls: 0 for no effect and ±100 for the full control effect; nearly all actives have a fitted effect of over 50% in size
- condition.summary: PPARd-bla HEK293H viability, CellTiter-Glo luminescence, 17 h; series mostly up to 62 µM
Results filed as inconclusive are left out. Active and inactive are the calls of the source. Calls come from the whole dose curve; as a rule, active = well fitted cell-killing curve with a large enough effect in the repeat runs; inconclusive = weak or mixed curves; inactive = no such curve, though single readings can be large or run the other way.
measure: outcome

For orientation, consider the following solved cases.
molecule: O=C(O)C(Br)Br
outcome: inactive
//
molecule: C/C=C/c1ccc2c(c1)OCO2
outcome: inactive
//
molecule: Nc1ccc([As](=O)(O)O)cc1
outcome: inactive
//
molecule: COC(C)(C)CCCC(C)C/C=C/C(C)=C/C(=O)OC(C)C (stereo not drawn)
outcome: inactive
//
molecule: C=C(C)C(=O)OCC(CC)CCCC (stereo not drawn)
outcome: inactive

outcome for `O=C(O)COc1ccccc1` is inactive

Measured outcome of `N#Cc1cccc(C#N)c1` : inactive

# molecule `OC[C@@H](O)[C@H]1O[C@@H]2O[C@H](C(Cl)(Cl)Cl)O[C@@H]2[C@H]1O` ; its outcome = inactive

----------
- system.under.test: Peroxisome proliferator-activated receptor gamma (Homo sapiens) (UniProt P37231)
- Sequence (P37231 whole entry, looked up): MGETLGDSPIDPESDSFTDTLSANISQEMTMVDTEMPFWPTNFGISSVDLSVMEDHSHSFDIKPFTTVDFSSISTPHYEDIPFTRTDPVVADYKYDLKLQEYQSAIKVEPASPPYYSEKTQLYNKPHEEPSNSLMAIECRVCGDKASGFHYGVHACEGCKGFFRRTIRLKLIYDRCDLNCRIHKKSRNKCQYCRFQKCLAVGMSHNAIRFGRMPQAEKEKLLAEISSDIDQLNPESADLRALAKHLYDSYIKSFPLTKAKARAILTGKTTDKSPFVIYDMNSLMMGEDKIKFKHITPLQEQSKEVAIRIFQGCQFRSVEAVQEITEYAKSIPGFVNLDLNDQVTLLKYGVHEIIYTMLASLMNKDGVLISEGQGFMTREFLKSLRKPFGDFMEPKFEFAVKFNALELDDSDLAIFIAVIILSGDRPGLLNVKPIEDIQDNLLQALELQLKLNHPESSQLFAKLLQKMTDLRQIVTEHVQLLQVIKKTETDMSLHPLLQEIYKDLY
- method.summary: qHTS assay to identify small molecule antagonists of the peroxisome proliferator-activated receptor gamma (PPARg) signaling pathway (AID 743191); also: nearly all actives have a fitted effect of over 30% in size
- condition.summary: HEK293H PPARg-UAS-bla, beta-lactamase ratio, antagonist, 17 h; series mostly up to 62.6 µM
Results filed as inconclusive are left out. Activity calls are given as the source filed them. Calls follow the shape of the full dose curve.
Use one of these outcomes when replying: TRUE = active, FALSE = inactive

What is the recorded call for this compound in the test? `CN(C)C(=O)C(c1ccccc1)c1ccccc1` FALSE

# fetch the recorded call for `CCCOC(=O)c1ccccc1C(=O)OCCC` here FALSE

Can you look up the reported call for `Oc1c(Br)cc(Br)cc1Br` for me? TRUE

I'd appreciate the recorded outcome for `OCc1ccco1` from this test. FALSE

Check the results log: what was the call for `O=C(O)Cc1ccccc1` ? FALSE

Could you kindly confirm the outcome this assay logged for `Cc1cccc(C)c1N` ? FALSE

How did this test come out for `Nc1cccc(Cl)c1` ? FALSE

----------
- method.summary: qHTS assay to identify small molecule agonists of the AP-1 signaling pathway - cell viability counter screen (AID 1159525); also: nearly all actives have a fitted effect of over 55% in size
- condition.summary: ME-180 (cervical carcinoma) AP-1-bla cells viability, ATP luminescence, 5 h; series mostly up to 76.8 µM
Results filed as inconclusive are left out. Calls of active or inactive are those of the source. Calls come from the whole dose curve.
measure: outcome

Solved cases below.
compound: CC(C)(C)C(=O)CCl
assay.result: inactive

compound: COP(=S)(OC)SCN1C(=O)c2ccccc2C1=O
assay.result: inactive

compound: CCSC(=O)N1CCCCCC1
assay.result: inactive

compound: CC(C)CCCCCCOC(=O)c1ccccc1C(=O)OCCCCCCC(C)C
assay.result: inactive

compound: C/C=C/c1ccc2c(c1)OCO2
assay.result: inactive

compound: CN(C)CCC#N
assay.result: inactive

Sample CNCC(O)c1ccc(O)cc1 (stereo not drawn) ; outcome observed: inactive

// `O=C(O)C(Br)Br` : outcome value = inactive

----------
- method.summary: A CellTox Green Cytotoxicity Assay to monitor cytotoxicity in HEK293 cells - 40 hour (AID 1224871); also: % is scaled to controls: 0 for no effect and ±100 for the full control effect; nearly all actives have a fitted effect of over 45% in size
- condition.summary: CellTox Green fluorescence; series mostly up to 76.8 µM
- Description: National Center for Advancing Translational Sciences [NCATS] NIH Chemical Genomics Center [NCGC] U.S. Environmental Protection Agency [EPA] National Institutes of Environmental Health Sciences [NIEHS] National Toxicology Program [NTP] Cell-based models are critical for drug discovery. […] Viable cells produce no appreciable increases in fluorescence. Therefore, the fluorescence signal produced by the binding interaction with dead cell DNA is proportional to cytotoxicity. […]
Records with an inconclusive call do not appear. Calls of active or inactive are those of the source. Calls follow the shape of the dose curve; as a rule, active = well fitted activation curve with a large enough effect in the repeat runs; inconclusive = weak or mixed curves; inactive = flat fitted curve, though single readings scatter.
measure: outcome

compound: Cc1cccc(N)c1C
outcome: inactive
//
compound: C[C@H]1C(=O)O[C@@H]2CCN3CC=C(COC(=O)[C@](C)(O)[C@]1(C)O)[C@H]23
outcome: inactive
//
compound: C=CC#N
outcome: inactive
//
compound: Nc1ccc([As](=O)(O)O)cc1
outcome: inactive
//
compound: O=C(O)COc1ccccc1
outcome: inactive
//
compound: Nc1nc(N)nc(NC2CC2)n1
outcome: inactive
//
compound: Cc1cc(Cl)ccc1OC(C)C(=O)O (stereo unspecified)
outcome: inactive
//
compound: Cc1cc(O)ccc1Cl
outcome: inactive
//
compound: Cl/C=C/Cl
outcome: inactive
//
compound: CCCOC(=O)c1ccccc1C(=O)OCCC
outcome: inactive

Lab book: outcome of `[N-]=[N+]=CC(=O)OC[C@H](N)C(=O)O` noted as inactive

For `CN(C)C(=O)C(c1ccccc1)c1ccccc1` the compound record lists outcome as inactive

Recorded result, `OCc1ccco1` , outcome: inactive

----------
- method.summary: qHTS RealTime-Glo MT Cell Viability Assay in HepG2 cells - 40 hour (AID 1224870); also: % is scaled to controls: 0 for no effect and ±100 for the full control effect; nearly all actives have a fitted effect of over 50% in size
- condition.summary: RealTime-Glo luminescence; series mostly up to 76.8 µM
Records with an inconclusive call do not appear. Active and inactive are the calls of the source. Calls come from the whole dose curve; as a rule, active = well fitted cell-killing curve with a large enough effect in the repeat runs; inconclusive = weak or mixed curves, or effect the other way; inactive = flat fitted curve, though single readings scatter.
measure: outcome

Some entries whose results are on file:
compound: O=C(O)COc1ccccc1
outcome: inactive
//
compound: FC(F)(F)c1ccc(Cl)cc1
outcome: inactive
//
compound: c1ccc2c(c1)CCCC2
outcome: inactive
//
compound: CN1C(=O)CCS(=O)(=O)C1c1ccc(Cl)cc1 (stereo not given)
outcome: inactive
//
compound: Cc1ccccc1N
outcome: inactive
//
compound: COc1nc(NC(C)C)nc(NC(C)C)n1
outcome: inactive
//
compound: C[C@H]1C(=O)O[C@@H]2CCN3CC=C(COC(=O)[C@](C)(O)[C@]1(C)O)[C@H]23
outcome: inactive
//
compound: Cl[C@H]1OCCO[C@@H]1Cl
outcome: inactive
//
compound: Nc1ncc([N+](=O)[O-])s1
outcome: inactive
//
compound: COS(=O)(=O)OC
outcome: inactive

Could you now consider this next compound?
The compound listed as `O=C(O)C(Br)Br` has a reported outcome of inactive

----------
- system.under.test: Voltage-gated inwardly rectifying potassium channel KCNH2 (Homo sapiens) (UniProt Q12809)
- Sequence (Q12809 whole entry, looked up): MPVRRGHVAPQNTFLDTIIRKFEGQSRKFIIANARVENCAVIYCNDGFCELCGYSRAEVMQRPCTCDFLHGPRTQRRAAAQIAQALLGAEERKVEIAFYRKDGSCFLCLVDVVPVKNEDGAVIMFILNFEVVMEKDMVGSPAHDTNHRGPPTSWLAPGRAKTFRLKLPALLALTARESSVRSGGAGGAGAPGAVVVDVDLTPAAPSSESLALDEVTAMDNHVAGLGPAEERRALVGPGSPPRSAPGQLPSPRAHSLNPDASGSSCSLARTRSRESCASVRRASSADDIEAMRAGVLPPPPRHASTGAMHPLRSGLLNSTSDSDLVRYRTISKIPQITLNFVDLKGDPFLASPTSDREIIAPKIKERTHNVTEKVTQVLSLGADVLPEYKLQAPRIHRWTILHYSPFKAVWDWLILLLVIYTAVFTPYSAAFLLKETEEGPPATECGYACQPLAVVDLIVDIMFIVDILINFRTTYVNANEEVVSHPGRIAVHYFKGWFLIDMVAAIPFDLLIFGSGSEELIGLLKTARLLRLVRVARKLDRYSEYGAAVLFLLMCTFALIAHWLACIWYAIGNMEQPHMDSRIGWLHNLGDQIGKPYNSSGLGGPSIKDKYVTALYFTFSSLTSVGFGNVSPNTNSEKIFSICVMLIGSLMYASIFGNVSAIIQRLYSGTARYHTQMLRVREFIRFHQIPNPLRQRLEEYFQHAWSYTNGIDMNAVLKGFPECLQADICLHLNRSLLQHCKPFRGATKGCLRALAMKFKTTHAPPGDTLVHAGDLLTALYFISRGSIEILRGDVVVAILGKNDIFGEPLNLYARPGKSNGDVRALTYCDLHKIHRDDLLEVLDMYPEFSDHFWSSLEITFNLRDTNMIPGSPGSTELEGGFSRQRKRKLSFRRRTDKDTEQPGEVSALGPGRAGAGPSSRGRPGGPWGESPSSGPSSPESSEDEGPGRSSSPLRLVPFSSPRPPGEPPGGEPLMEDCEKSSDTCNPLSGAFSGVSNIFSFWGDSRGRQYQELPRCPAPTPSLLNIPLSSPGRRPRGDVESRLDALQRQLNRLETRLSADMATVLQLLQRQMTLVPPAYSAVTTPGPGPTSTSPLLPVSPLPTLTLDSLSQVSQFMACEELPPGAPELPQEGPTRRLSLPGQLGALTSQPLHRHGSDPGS
- method.summary: Human Ether-a-go-go-Related Gene (hERG) channel small molecule antagonists: fluorescence cell-based qHTS assay (AID 1671200); also: nearly all actives have a fitted effect of over 50% in size
- condition.summary: hERG-U2OS cells, FluxOR thallium flux fluorescence; series mostly up to 76.8 µM
Results filed as inconclusive are left out. The source made the active and inactive calls. Calls follow the shape of the dose curve; as a rule, active = well fitted inhibition curve with a large enough effect in the repeat runs; inconclusive = weak or mixed curves; inactive = flat fitted curve, though single readings scatter.
Lab note: assign the record to one of 1 = active, -1 = inactive

What did this assay record as the result for `CC(=O)/C=C/c1ccccc1` ? -1

Which outcome did this test record for the compound `ClC(Cl)c1ccccc1` ? -1

# lookup: test call for `CN(C)NC(=O)CCC(=O)O` -1

What classification did `Clc1cnc(Oc2ccc(Oc3ncc(Cl)cc3Cl)cc2)c(Cl)c1` end up with in this test? 1

Called result for `CSc1nnc(C(C)(C)C)c(=O)n1N` -1

Fill in: this test's call for `Cc1ccc(N=C=O)cc1N=C=O` is ___ -1

Recorded call for `CCOP(=S)(OCC)Oc1cc(C)nc(C(C)C)n1` ? -1

Test call for this compound, please: `CCOc1ccc(N)cc1` -1

Write down the call the test reported for this compound. Item: `O=C(O)CCCc1ccc(N(CCCl)CCCl)cc1` -1

In this assay, the call recorded for C=CC(=O)OCC(CC)CCCC (stereo unspecified) was what? -1

Tell me the assay call for `COc1cc(-c2ccc(N)c(OC)c2)ccc1N` please. -1

Tell me the assay call for `CC(C)(C)C(=O)CCl` please. -1

Please let me know the test result on file for `CC(C)c1cccc(C(C)C)c1O` . -1

Record lookup: outcome of this test for `O=C(O)Cc1ccccc1` ? -1

# outcome recorded in this test, key = `CN(C)C(=O)Cl` -1

Given CNC(=O)O/N=C/C(C)(C)S(C)=O (stereo unspecified) , state the outcome it received in this test. -1

# fetch the recorded call for `CN(C)CCC#N` here -1

Look up the recorded call for `C/C=C/c1ccc2c(c1)OCO2` in this test. -1

Could you please tell me the result logged for `CN(C)C(=O)Nc1cccc(C(F)(F)F)c1` in this assay? -1

# outcome recorded in this test, key = `CCCOC(=O)c1ccccc1C(=O)OCCC` -1

Give the logged outcome of this assay for the following compound: `O=C(O)C(Br)Br` -1

# fetch the recorded call for `Cl/C=C/Cl` here -1

Hi, sorry to bother you, what did the test record for `CCSC(=O)N1CCCCCC1` ? -1

Recorded test call requested for COC(C)(C)CCCC(C)C/C=C/C(C)=C/C(=O)OC(C)C (stereo unspecified) -1

Give the logged outcome of this assay for the following compound: `FC(F)(F)c1ccc(Cl)cc1` -1

Please let me know the test result on file for CC12CC1(C)C(=O)N(c1cc(Cl)cc(Cl)c1)C2=O (stereo unspecified) . -1

What did the test return for O=P1(NCCCl)OCCCN1CCCl (stereo unspecified) ? -1

// return assay outcome for `ClCCOCCCl` -1

I'd appreciate the recorded outcome for `CNC(=O)Oc1cccc2ccccc12` from this test. -1

Status in this test for `[N-]=[N+]=CC(=O)OC[C@H](N)C(=O)O` ? -1

For `c1ccc2c(c1)CCCC2` , which call appears in the assay record? -1

Tell me the recorded outcome of this test for `OC[C@@H](O)[C@H]1O[C@@H]2O[C@H](C(Cl)(Cl)Cl)O[C@@H]2[C@H]1O` . -1

What classification did `CNC(=O)O/N=C(\SC)C(=O)N(C)C` end up with in this test? -1

Recorded test call requested for `Cc1cccc(C)c1NC(=O)CN1CCCC1=O` -1

What is the recorded call for this compound in the test? CCCCC(CC)C(=O)Cl (stereo unspecified) -1

Per the records of this test, what outcome belongs to `CCNc1nc(Cl)nc(NC(C)C)n1` ? -1

Short answer needed: outcome of this test for `Cl[C@H]1OCCO[C@@H]1Cl` ? -1

What is the recorded call for this compound in the test? `Oc1ccc(Cl)cc1` -1

How did this test come out for `C=CC(=O)OCCCCCC(C)C` ? -1

Called result for O=C(O)C1C(C(=O)O)C2(Cl)C(Cl)=C(Cl)C1(Cl)C2(Cl)Cl (stereo unspecified) -1

Check the results log: what was the call for `O=C(O)c1cc(Oc2ccc(C(F)(F)F)cc2Cl)ccc1[N+](=O)[O-]` ? -1

Given `COP(=S)(OC)Oc1ccc(SC)c(C)c1` , state the outcome it received in this test. -1

Could you kindly confirm the outcome this assay logged for `O=S(=O)(O)OOS(=O)(=O)O` ? -1

What is the recorded call for this compound in the test? `Cc1cccc(N)c1` -1

Test call for this compound, please: `O=C(O)COc1ccccc1` -1

Please indicate how the test categorized `C=CCN=C=S` . -1

Test call, this compound: `CC[N+](=O)[O-]` -1

Dear colleague, could you share the recorded outcome for `Nc1cccc(Cl)c1` when you have a moment? -1

Status in this test for `O=[N+]([O-])c1cc([As](=O)(O)O)ccc1O` ? -1

In this assay, the call recorded for `Nc1nc(N)nc(NC2CC2)n1` was what? -1

Entry `NNc1ccccc1` : call = ? -1
